Data provenance: patent US7834028B2

target_or_system: human orexin-2 receptor (Homo sapiens)
Construct: expressed in transfected cells; host or cells: CHO cells (G418 selection)
Sequence (O43614 1-444): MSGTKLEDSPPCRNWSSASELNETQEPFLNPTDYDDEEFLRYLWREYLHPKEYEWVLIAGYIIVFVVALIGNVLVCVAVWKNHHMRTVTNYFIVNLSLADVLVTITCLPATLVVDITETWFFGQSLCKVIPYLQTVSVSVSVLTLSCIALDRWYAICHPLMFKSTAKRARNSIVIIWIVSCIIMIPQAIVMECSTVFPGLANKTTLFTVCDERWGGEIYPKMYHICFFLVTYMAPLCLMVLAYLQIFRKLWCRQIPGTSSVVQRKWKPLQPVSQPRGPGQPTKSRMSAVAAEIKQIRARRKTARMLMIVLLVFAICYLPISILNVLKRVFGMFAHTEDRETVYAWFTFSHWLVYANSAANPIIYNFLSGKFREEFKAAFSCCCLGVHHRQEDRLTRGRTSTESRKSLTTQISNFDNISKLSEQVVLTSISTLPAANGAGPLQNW
assay_comment: Intracellular calcium measurements (FLIPR), orexin-A induced, CHO cells expressing human orexin-2 receptor
Assay type: cell-based
condition_info: 10 nM orexin-A as agonist, read-out: IC50 OX2
Record form. Attribute: pIC50. Fill in for each entry.
pIC50 here is simply -log10 of the concentration when that concentration is written in mol/L.

Record CCn1nc(C)c2c1CCN([C@@H](C(=O)NC)c1ccccc1)[C@H]2CCc1ccc(C(F)(F)F)cc1F [Example 31] has human orexin-2 receptor (Homo sapiens) pIC50 equal to 8.10

GET /values?item= CCn1nc(C)c2c1CCN(C(C(=O)NC)c1ccccc1)C2CCc1cc(C(F)(F)F)ccc1F (stereo not drawn) [Example 3] &system= human orexin-2 receptor (Homo sapiens) returns pIC50: 8.52

Query CCn1nc(C)c2c1CCN([C@@H](C(=O)NC)c1ccccc1)[C@H]2CCc1ccc(C)cc1 (stereo in doubt) [Example 6] on human orexin-2 receptor (Homo sapiens); pIC50 returned: 8.40

Per the reported human orexin-2 receptor (Homo sapiens) data, CCn1nc(C)c2c1CCN([C@@H](C(=O)NC)c1ccccc1)[C@H]2CCc1ccc(C)c(C)c1 [Example 33] has pIC50 of 8.40

Item CCn1nc(C)c2c1CCN([C@@H](C(=O)NC)c1ccccc1)[C@H]2CCc1ccc(C)cc1C [Example 35] was tested on human orexin-2 receptor (Homo sapiens); the reported pIC50 is 8.15

For the compound CCn1nc(C)c2c1CCN([C@@H](C(=O)NC)c1ccccc1)[C@H]2CCc1ccc(C)c(F)c1 [Example 32] , the measured pIC50 on human orexin-2 receptor (Homo sapiens) was 8.70

====

target_or_system: human orexin-1 receptor (Homo sapiens)
Sequence (O43613 whole entry): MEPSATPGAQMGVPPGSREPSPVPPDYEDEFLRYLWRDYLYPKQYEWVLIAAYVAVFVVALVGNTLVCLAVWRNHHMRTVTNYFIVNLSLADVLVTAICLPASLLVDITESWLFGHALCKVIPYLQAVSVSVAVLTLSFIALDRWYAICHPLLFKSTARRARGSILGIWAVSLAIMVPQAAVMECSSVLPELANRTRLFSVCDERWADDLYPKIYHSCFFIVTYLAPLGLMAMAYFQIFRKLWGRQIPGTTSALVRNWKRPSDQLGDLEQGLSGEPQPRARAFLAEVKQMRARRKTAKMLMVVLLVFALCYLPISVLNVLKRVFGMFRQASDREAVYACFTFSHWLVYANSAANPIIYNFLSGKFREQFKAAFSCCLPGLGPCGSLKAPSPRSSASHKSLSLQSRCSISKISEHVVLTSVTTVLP
assay_comment: Intracellular calcium measurements (FLIPR), orexin-A induced, CHO cells expressing human orexin-1 receptor
condition_info: 10 nM orexin-A as agonist, read-out: IC50 OX1
For each entry below, report its IC50 value.
Numeric only. Scale: nM

// field: IC50; key: "CCn1nc(C)c2c1CCN([C@@H](C(=O)NC)c1ccccc1)[C@H]2CCc1ccc(C(F)(F)F)cc1F" ; value = 52

The compound listed as "CCn1nc(C)c2c1CCN([C@@H](C(=O)NC)c1ccccc1)[C@H]2CCc1ccc(C)cc1C" has a reported IC50 of 131

Per the records, this compound ( "CCn1nc(C)c2c1CCN([C@@H](C(=O)NC)c1ccccc1)[C@H]2CCc1ccc(C)c(C)c1" ) has IC50 equal to 20

The recorded IC50 for CCn1nc(C)c2c1CCN(C(C(=O)NC)c1ccccc1)C2CCc1cc(C(F)(F)F)ccc1F (stereo not drawn) is 49

For reference, reported IC50 for "CCn1nc(C)c2c1CCN([C@@H](C(=O)NC)c1ccccc1)[C@H]2CCc1ccc(C)c(F)c1" stands at 49

Recorded result, CCn1nc(C)c2c1CCN([C@@H](C(=O)NC)c1ccccc1)[C@H]2CCc1ccc(C)cc1 (stereo in doubt) , IC50: 75
